target: UniProt P09917
Sequence (P09917 whole entry): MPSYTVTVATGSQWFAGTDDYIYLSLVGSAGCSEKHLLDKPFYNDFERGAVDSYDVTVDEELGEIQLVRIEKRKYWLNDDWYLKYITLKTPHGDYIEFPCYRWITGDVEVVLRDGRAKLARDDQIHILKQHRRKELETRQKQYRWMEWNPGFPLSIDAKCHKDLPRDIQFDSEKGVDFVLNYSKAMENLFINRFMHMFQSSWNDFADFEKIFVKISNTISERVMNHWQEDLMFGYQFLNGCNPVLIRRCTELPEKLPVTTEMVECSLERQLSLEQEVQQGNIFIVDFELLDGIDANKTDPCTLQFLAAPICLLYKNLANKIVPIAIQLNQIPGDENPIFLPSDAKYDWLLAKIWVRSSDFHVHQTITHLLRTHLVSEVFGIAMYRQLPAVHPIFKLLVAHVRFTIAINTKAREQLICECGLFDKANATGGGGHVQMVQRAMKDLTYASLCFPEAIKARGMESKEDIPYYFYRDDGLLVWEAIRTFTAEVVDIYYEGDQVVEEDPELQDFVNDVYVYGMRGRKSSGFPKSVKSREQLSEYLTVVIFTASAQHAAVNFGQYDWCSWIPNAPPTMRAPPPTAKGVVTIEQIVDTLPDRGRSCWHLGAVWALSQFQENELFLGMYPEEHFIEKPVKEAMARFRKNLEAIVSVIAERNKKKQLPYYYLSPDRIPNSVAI
protocol_details: Inhibitory activity against 5-lipoxygenase at 10 uM concentration
Returns one of t or f; t when inhibition is >= 40%.

Record excerpt, results attached:
CC(C)(C)c1cc(/C=C/c2ccc(Cl)cc2)cc(C(C)(C)C)c1O	f
CCOC(=O)/C(=C\c1cc(C(C)(C)C)c(O)c(C(C)(C)C)c1)c1cccnc1	t
CC(C)(C)c1cc(C(=O)/C=C/c2ccsc2)cc(C(C)(C)C)c1O	t
Cc1ccc(/C=C/c2cc(C(C)(C)C)c(O)c(C(C)(C)C)c2)cc1	f

Attention now shifts to the item below.
Hello, I need to know if CC(C)(C)c1cc(/C=C/c2ccc(Cl)c(Cl)c2)cc(C(C)(C)C)c1O has measured inhibition not below 40%. Thanks!
f
